# assay_procedure: Solubility of photochromic compound in polymerizable compounds
# Format: physicochemical
# Parameters: key: 1: No haze is seen when checked under transmission of light, and the sample is completely dissolved.; 2: A very thin haze is seen to the extent that it can be seen under transmission of light.; 3: A thin haze that can be seen under transmission of light is seen.; 4: A haze can be seen even without transmission of light
# condition: 35 µmol/g in radical polymerizable compound composition of Example 21, 65 to 70°C, stirring and ultrasonic irradiation
assay_metric: Dissolution for 30 min
Answer with a bare number; do not write a unit.

compound	value_reported
CCCC1(C)c2ccccc2-c2c1c1c(c3cc(OC)c(-c4c(OC)cc(OC)cc4OC)cc23)OC(c2ccc(OC)cc2)(c2ccc(N(c3ccccc3)c3ccccc3)cc2)C=C1 (stereo not drawn)	2

Entry COc1ccc(C2(c3ccc(N4CCOCC4)cc3)C=Cc3c4c(c5ccc(OC)cc5c3O2)-c2ccc(OC)cc2C42CC(C)(C)CC(C)(C)C2)cc1 (stereo not drawn) [Formula (E), reference compound] — recorded Dissolution for 30 min = 3

---

Form field: Dissolution for 30 min (one value per entry).
# assay_procedure: Solubility of photochromic compound in polymerizable compounds
# Assay type: physicochemical
# Set-up: key: 1: No haze is seen when checked under transmission of light, and the sample is completely dissolved.; 2: A very thin haze is seen to the extent that it can be seen under transmission of light.; 3: A thin haze that can be seen under transmission of light is seen.; 4: A haze can be seen even without transmission of light
# condition: 35 µmol/g in radical polymerizable compound composition of Example 21, 65 to 70°C, stirring and ultrasonic irradiation
Answer with a bare number; do not write a unit.

molecule	Dissolution for 30 min
CCCCC1(C(C)CC)c2ccccc2-c2c1c1c(c3cc(OC)c(N4CCOCC4)cc23)OC(c2ccc(OC)cc2)(c2ccc(OC)cc2)C=C1 (stereo not drawn)	2
CCCOc1ccc(C2(c3ccc(OC)cc3)C=Cc3c4c(c5cc(OC)c(OC)cc5c3O2)-c2ccc(N(C)c3ccccc3)cc2C4(CC)CCC)cc1 (stereo not drawn)	2
CCCOc1ccc(C2(c3ccc(OC)cc3)C=Cc3c4c(c5cc(OC)c(OC)cc5c3O2)-c2ccc(N(C)c3ccccc3)cc2C4(C)C)cc1 (stereo not drawn) [Formula (I), reference compound]	4
CCC1(C)c2ccccc2-c2c1c1c(c3cc(OC)c(N(C)c4ccccc4)cc23)OC(c2ccc(OC)cc2)(c2ccc(OC)cc2)C=C1 (stereo not drawn)	2
CCCC1(CC)c2cc(C)ccc2-c2c1c1c(c3cc(OC)c(-c4ccc(N5CCOCC5)cc4)cc23)OC(c2ccc(OC)cc2)(c2ccc(N3CCOCC3)cc2)C=C1 (stereo not drawn)	2

With those in mind, consider the next molecule.
Entry CCCCC1(CC)c2cc(N(C)c3ccccc3)ccc2-c2c1c1c(c3cc(OC)c(OC)cc23)OC(c2ccc(OC)cc2)(c2ccc(OCCC)cc2)C=C1 (stereo not drawn) — recorded Dissolution for 30 min = 2

---

# assay_procedure: Solubility of photochromic compound in polymerizable compounds
# Format: physicochemical
# Design: key: 1: No haze is seen when checked under transmission of light, and the sample is completely dissolved.; 2: A very thin haze is seen to the extent that it can be seen under transmission of light.; 3: A thin haze that can be seen under transmission of light is seen.; 4: A haze can be seen even without transmission of light
# condition: 35 µmol/g in radical polymerizable compound composition of Example 21, 65 to 70°C, stirring and ultrasonic irradiation
Form field: Dissolution for 15 min (one value per entry).
Answer with a bare number; do not write a unit.

compound	assay_metric	value_reported
CCCCC1(CCC)c2cc(C)ccc2-c2c1c1c(c3cc(OC)c(-c4ccc(N5CCOCC5)cc4)cc23)OC(c2ccc(OC)cc2)(c2ccc(N3CCOCC3)cc2)C=C1 (centres unmarked)	Dissolution for 15 min	3

Entry CCCCCC1(CC)c2cc(OC(F)(F)F)ccc2-c2c1c1c(c3cc(OC)ccc23)OC(c2ccc(OC)cc2)(c2ccc(OC)cc2)C=C1 (centres unmarked) — recorded Dissolution for 15 min = 3

Entry CCCCCCC1(CC)c2ccccc2-c2c1c1c(c3cc(OC)c(N4CCOCC4)cc23)OC(c2ccc(OC)cc2)(c2ccc(OC)cc2)C=C1 (centres unmarked) — recorded Dissolution for 15 min = 3

Entry CCC1(CC)c2ccccc2-c2c1c1c(c3cc(OC)c(N(C)c4ccccc4)cc23)OC(c2ccc(OC)cc2)(c2ccc(OC)cc2)C=C1 [Formula (F), reference compound] — recorded Dissolution for 15 min = 4

Entry CCCCC1(CCC)c2ccccc2-c2c1c1c(c3cc(OC)c(N4CCOCC4)cc23)OC(c2ccc(OC)cc2)(c2ccc(OC)cc2)C=C1 (centres unmarked) — recorded Dissolution for 15 min = 4

Entry CCCCCCCCCCCC1(C)c2ccccc2-c2c1c1c(c3cc(OC)c(N4CCOCC4)cc23)OC(c2ccc(OC)cc2)(c2ccc(OC)cc2)C=C1 (centres unmarked) — recorded Dissolution for 15 min = 2

Entry COc1ccc(C2(c3ccc(OC)cc3)C=Cc3c4c(c5ccc(OC)cc5c3O2)-c2ccc(OC(F)(F)F)cc2C4(C)C)cc1 [Formula (H), reference compound] — recorded Dissolution for 15 min = 4

---

# assay_procedure: Solubility of photochromic compound in polymerizable compounds
# Type: physicochemical
# Set-up: key: 1: No haze is seen when checked under transmission of light, and the sample is completely dissolved.; 2: A very thin haze is seen to the extent that it can be seen under transmission of light.; 3: A thin haze that can be seen under transmission of light is seen.; 4: A haze can be seen even without transmission of light
# condition: 35 µmol/g in radical polymerizable compound composition of Example 21, 65 to 70°C, stirring and ultrasonic irradiation
assay_metric: Dissolution for 45 min
Answer with a bare number; do not write a unit.

Example results:
compound	Dissolution for 45 min
CCCC1(C)c2ccccc2-c2c1c1c(c3cc(OC)c(-c4c(OC)cc(OC)cc4OC)cc23)OC(c2ccc(OC)cc2)(c2ccc(N(c3ccccc3)c3ccccc3)cc2)C=C1 (stereo not drawn) [Formula (89-1)]	1
COc1ccc(C2(c3ccc(N4CCOCC4)cc3)C=Cc3c4c(c5cc(-c6ccc(N7CCOCC7)cc6)c(OC)cc5c3O2)-c2ccc(C)cc2C4(C)C)cc1 (stereo not drawn) [Formula (G), reference compound]	3
CCCC1(CC)c2ccccc2-c2c1c1c(c3cc(OC)c(-c4c(OC)cc(OC)cc4OC)cc23)OC(c2ccc(OC)cc2)(c2ccc(N(c3ccccc3)c3ccccc3)cc2)C=C1 (stereo not drawn) [Formula (78-2)]	1
CCCC1(CC)c2ccccc2-c2c1c1c(c3cc(OC)c(N4CCOCC4)cc23)OC(c2ccc(OC)cc2)(c2ccc(OC)cc2)C=C1 (stereo not drawn) [Formula (14-1)]	1
CCCC1(CC)c2cc(C)ccc2-c2c1c1c(c3cc(OC)c(-c4ccc(N5CCOCC5)cc4)cc23)OC(c2ccc(OC)cc2)(c2ccc(N3CCOCC3)cc2)C=C1 (stereo not drawn) [Formula (79-2)]	1

Entry CCC1(C)c2ccccc2-c2c1c1c(c3cc(OC)c(N(C)c4ccccc4)cc23)OC(c2ccc(OC)cc2)(c2ccc(OC)cc2)C=C1 (stereo not drawn) [Formula (9-1)] — recorded Dissolution for 45 min = 2

Entry CCC1(OC)c2ccccc2-c2c1c1c(c3cc(OC)c(N4CCOCC4)cc23)OC(c2ccc(OC)cc2)(c2ccc(OC)cc2)C=C1 (stereo not drawn) [Formula (B), reference compound] — recorded Dissolution for 45 min = 1

Entry CCCC1(CC)c2cc(OC)ccc2-c2c1c1c(c3cc(OC)ccc23)OC(c2ccc(OC)cc2)(c2ccc(N3CCOCC3)cc2)C=C1 (stereo not drawn) [Formula (91-1)] — recorded Dissolution for 45 min = 1

Entry CCCCCCC1(C)c2cc(OC(F)(F)F)ccc2-c2c1c1c(c3cc(OC)ccc23)OC(c2ccc(OC)cc2)(c2ccc(OC)cc2)C=C1 (stereo not drawn) [Formula (90-1)] — recorded Dissolution for 45 min = 1

Entry CCC1(CC)c2ccccc2-c2c1c1c(c3cc(OC)c(N(C)c4ccccc4)cc23)OC(c2ccc(OC)cc2)(c2ccc(OC)cc2)C=C1 [Formula (F), reference compound] — recorded Dissolution for 45 min = 3

Entry CCCCC1(CC)c2cc(OC)ccc2-c2c1c1c(c3cc(OC)c(Sc4c(C)cccc4C)cc23)OC(c2ccc(OC)cc2)(c2ccc(N3CCOCC3)cc2)C=C1 (stereo not drawn) [Formula (77-1)] — recorded Dissolution for 45 min = 1

Entry COc1ccc(C2(c3ccc(N4CCOCC4)cc3)C=Cc3c4c(c5ccc(OC)cc5c3O2)-c2ccc(OC)cc2C42CC(C)(C)CC(C)(C)C2)cc1 (stereo not drawn) [Formula (E), reference compound] — recorded Dissolution for 45 min = 3

Entry CCCCC1(CC)c2cc(N(C)c3ccccc3)ccc2-c2c1c1c(c3cc(OC)c(OC)cc23)OC(c2ccc(OC)cc2)(c2ccc(OCCC)cc2)C=C1 (stereo not drawn) [Formula (82-1)] — recorded Dissolution for 45 min = 1

Entry CCCCC1(CC)c2ccccc2-c2c1c1c(c3cc(OC)c(N(C)c4ccccc4)cc23)OC(c2ccc(OC)cc2)(c2ccc(OC)cc2)C=C1 (stereo not drawn) [Formula (80-2)] — recorded Dissolution for 45 min = 1

Entry COc1ccc(C2(c3ccc(N(c4ccccc4)c4ccccc4)cc3)C=Cc3c4c(c5cc(-c6c(OC)cc(OC)cc6OC)c(OC)cc5c3O2)-c2ccccc2C4(C)C)cc1 (stereo not drawn) [Formula (L), reference compound] — recorded Dissolution for 45 min = 2

Entry CCCCCCCCCCCC1(C)c2ccccc2-c2c1c1c(c3cc(OC)c(N4CCOCC4)cc23)OC(c2ccc(OC)cc2)(c2ccc(OC)cc2)C=C1 (stereo not drawn) [Formula (19-1)] — recorded Dissolution for 45 min = 1
